Target: MERTK (UniProt Q12866)
Sequence (Q12866 whole entry, looked up): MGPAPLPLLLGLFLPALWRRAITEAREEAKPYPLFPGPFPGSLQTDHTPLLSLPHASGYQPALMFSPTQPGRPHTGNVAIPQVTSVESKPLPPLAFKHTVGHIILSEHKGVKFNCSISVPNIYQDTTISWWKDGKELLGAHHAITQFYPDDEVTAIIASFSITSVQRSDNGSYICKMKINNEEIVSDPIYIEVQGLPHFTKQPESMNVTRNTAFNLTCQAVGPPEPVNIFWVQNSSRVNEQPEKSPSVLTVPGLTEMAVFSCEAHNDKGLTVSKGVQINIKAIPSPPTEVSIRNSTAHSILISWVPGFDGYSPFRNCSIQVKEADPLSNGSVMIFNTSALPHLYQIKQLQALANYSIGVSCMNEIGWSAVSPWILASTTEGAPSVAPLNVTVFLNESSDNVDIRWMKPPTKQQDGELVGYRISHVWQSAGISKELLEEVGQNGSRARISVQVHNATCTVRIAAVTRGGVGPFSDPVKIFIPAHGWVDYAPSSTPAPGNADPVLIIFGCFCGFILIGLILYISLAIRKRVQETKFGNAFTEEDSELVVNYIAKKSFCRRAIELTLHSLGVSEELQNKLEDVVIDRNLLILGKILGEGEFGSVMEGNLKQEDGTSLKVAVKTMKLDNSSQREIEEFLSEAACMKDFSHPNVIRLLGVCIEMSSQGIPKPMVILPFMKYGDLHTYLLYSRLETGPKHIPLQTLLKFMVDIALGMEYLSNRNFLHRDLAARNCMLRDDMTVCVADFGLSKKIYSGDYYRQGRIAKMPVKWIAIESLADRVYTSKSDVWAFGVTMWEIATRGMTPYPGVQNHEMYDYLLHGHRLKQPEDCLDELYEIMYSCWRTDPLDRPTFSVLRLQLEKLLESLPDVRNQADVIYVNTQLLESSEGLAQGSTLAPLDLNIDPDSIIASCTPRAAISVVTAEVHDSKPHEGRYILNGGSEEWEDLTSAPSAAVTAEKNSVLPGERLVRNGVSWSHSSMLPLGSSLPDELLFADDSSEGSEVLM
Test: phosphorylation enrichment, bacterial display (enrichment ratio); higher = better substrate or ligand; peptides without Tyr show the background;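 further: 11-residue human phosphosite peptides and single-mutation variants displayed on the E. coli surface, counted by deep sequencing, each peptide's frequency after selection divided by its frequency in the unselected input library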;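 further: frequency after pTyr selection over input frequency; kinase dosed for 20-30% of maximal phosphorylation in three min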
Each record here notes measured phosphorylation enrichment.
Give the value as a plain number.

Take a look at these entries with their results.
>  <sequence_record>
QSQQAYQEAFE [YWHAZ_Y149]

>  <experimental_system>
MERTK (UniProt Q12866)

>  <phosphorylation enrichment>
0.541

$$$$
>  <sequence_record>
KKRSVYLKVLF [CC2D2A_Y683]

>  <experimental_system>
MERTK (UniProt Q12866)

>  <phosphorylation enrichment>
0.361

$$$$
>  <sequence_record>
GGCQEYTGAPF [NAXD_Y85_YF]

>  <experimental_system>
MERTK (UniProt Q12866)

>  <phosphorylation enrichment>
0.456

$$$$
>  <sequence_record>
INSLKYAFNIS [EIF2B5_Y583_YF]

>  <experimental_system>
MERTK (UniProt Q12866)

>  <phosphorylation enrichment>
0.349

$$$$
>  <sequence_record>
RGYRQDAYDGK [HLA-A_Y140]

>  <experimental_system>
MERTK (UniProt Q12866)

>  <phosphorylation enrichment>
0.436

$$$$

Provide the reported phosphorylation enrichment (system: MERTK (UniProt Q12866)) for DVMDLYKTLRG [NR3C1_Y30_F29L]
0.431
